test system: U-2932; assay: growth inhibition by drug alone (1 - RLU/untreated control) (fraction); higher = stronger inhibition; conditions: 1000 nM; time (day): 3; 177Lu-lilotomab satetraxetan 0 ug/ml
Classification field: enter True for growth inhibition by drug alone values not below 0.1, False for values below it.

stdin: Test whether the compound N#CC(c1ccnc(NCCc2cccnc2)n1)c1nc2ccccc2s1 (stereo not drawn) records growth inhibition by drug alone of 0.1 or higher.
stdout: False

stdin: And the next one, CC(C)C(=O)Nc1ccc([N+](=O)[O-])c(C(F)(F)F)c1 [Flutamide (Eulexin)] ?
stdout: True

stdin: And the next one, CC[C@H]1OC(=O)[C@H](C)[C@@H](O[C@H]2C[C@@](C)(OC)[C@@H](O)[C@H](C)O2)[C@H](C)[C@@H](O[C@@H]2O[C@H](C)C[C@H](N(C)C)[C@H]2O)[C@](C)(O)C[C@@H](C)CN(C)[C@H](C)[C@@H](O)[C@]1(C)O [Azithromycin (Zithromax)] ?
stdout: False

stdin: And the next one, `COc1ccc(S(=O)(=O)Nc2cccnc2Nc2ccc(O)cc2)cc1` ?
stdout: True

stdin: And the next one, `CC[C@H](Nc1ncnc2[nH]cnc12)c1nc2cccc(F)c2c(=O)n1-c1ccccc1` ?
stdout: True

stdin: And the next one, `CN(C)c1nc(N(C)C)nc(N(C)C)n1` ?
stdout: False
